target: Protein Mdm4 (Homo sapiens) + E3 ubiquitin-protein ligase Mdm2 (Homo sapiens) (UniProt O15151+Q00987); assay: inhibitors of human Mdm2-MdmX association, primary screen, cell-based, luminescence, split luciferase, SaOS-2, uHTS (AID 485346); conditions: SaOS-2 split-luciferase Mdm2/MdmX complementation, at 8 µM, hits give high values
Sequence (O15151 whole entry, looked up): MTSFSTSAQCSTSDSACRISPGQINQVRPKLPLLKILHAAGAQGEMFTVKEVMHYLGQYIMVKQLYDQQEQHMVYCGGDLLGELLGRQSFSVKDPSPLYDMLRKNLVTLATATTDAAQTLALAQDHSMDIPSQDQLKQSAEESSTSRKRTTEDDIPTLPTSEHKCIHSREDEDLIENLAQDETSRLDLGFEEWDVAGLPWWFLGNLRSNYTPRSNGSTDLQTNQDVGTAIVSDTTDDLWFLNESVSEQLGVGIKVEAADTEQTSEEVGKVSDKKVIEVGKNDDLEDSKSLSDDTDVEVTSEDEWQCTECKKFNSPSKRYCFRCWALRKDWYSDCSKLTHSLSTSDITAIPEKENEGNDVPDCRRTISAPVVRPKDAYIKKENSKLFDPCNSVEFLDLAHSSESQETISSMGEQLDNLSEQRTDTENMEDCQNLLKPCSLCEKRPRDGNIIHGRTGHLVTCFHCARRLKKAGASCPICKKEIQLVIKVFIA
Sequence (Q00987 whole entry, looked up): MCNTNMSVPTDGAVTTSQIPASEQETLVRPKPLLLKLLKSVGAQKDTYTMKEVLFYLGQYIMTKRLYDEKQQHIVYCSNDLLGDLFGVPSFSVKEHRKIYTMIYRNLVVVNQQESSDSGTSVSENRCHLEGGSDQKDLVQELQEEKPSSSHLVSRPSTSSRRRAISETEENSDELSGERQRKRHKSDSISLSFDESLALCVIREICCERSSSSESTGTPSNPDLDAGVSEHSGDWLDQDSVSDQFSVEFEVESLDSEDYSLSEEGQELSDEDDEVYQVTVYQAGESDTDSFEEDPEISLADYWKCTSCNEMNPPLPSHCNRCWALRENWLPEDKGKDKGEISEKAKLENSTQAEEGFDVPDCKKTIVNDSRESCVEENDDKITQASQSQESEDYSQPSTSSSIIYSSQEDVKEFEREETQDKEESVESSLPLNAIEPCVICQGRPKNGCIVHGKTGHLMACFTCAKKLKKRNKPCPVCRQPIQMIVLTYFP
About 10,000 (3%) of roughly 330,000 compounds were called active. What follows is part of a selection rich in actives, with near analogues and random picks from the rest.
Could you label it 1 (yes) if measured inhibition is 10% or higher, and 0 (no) otherwise?

• Cc1c(NC(=O)CN(C)CC(=O)Nc2ccc(F)c(F)c2F)c(=O)n(-c2ccccc2)n1C = 0 (no)
• O=C(NCCCn1ccnc1)C(=O)NCC1OCCN1S(=O)(=O)c1cc(F)ccc1F (stereo unspecified) = 0 (no)
• COc1ccc(OCC(=O)Nc2ccc(NC(=O)c3ccco3)c(C)c2)cc1 = 0 (no)
• O=C1CN(C(=O)c2cc(F)cc(F)c2)c2ccccc2N1 = 1 (yes)
• CC(Nc1nc(C(F)(F)F)nc2ccccc12)c1cccs1 (stereo unspecified) = 1 (yes)
• Cc1nc2cc(C(F)(F)F)ccc2n1CCNc1nc(-c2cc(Cl)c(N)c(Cl)c2)cs1 = 1 (yes)
• COc1ccc(C2CC(c3cccs3)=NN2c2nc(C)c(C(C)=O)s2)cc1OC (stereo unspecified) = 1 (yes)
• Cn1nc(C(=O)OCC(=O)N(Cc2ccccc2)C(C)(C)C)c2ccccc2c1=O = 1 (yes)
• OC(CNC1CCCC1)COc1ccc(F)cc1 (stereo unspecified) = 0 (no)
• CC(Oc1ccccc1)C(=O)NN1Cc2ccccc2C1=N (stereo unspecified) = 1 (yes)
• COc1cccc(CNc2nc(C(F)(F)F)nc3ccccc23)c1 = 1 (yes)

====

biological target: Protein Mdm4 (Homo sapiens) + E3 ubiquitin-protein ligase Mdm2 (Homo sapiens) (UniProt O15151+Q00987); assay: inhibitors of human Mdm2-MdmX association, primary screen, cell-based, luminescence, split luciferase, SaOS-2, uHTS (AID 485346); conditions: SaOS-2 split-luciferase Mdm2/MdmX complementation, at 8 µM
About 10,000 (3%) of roughly 330,000 compounds were called active.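 The calls were made as follows: active = inhibition of at least 50% at 8 µM in the primary screen; inactive = the rest.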 What follows is part of a selection rich in actives, with near analogues and random picks from the rest.
Possible outcomes: Y for active, N for inactive

* CC(C)(Oc1ccc(Cl)cc1)C(=O)OCC(=O)NCCc1ccc(S(N)(=O)=O)cc1 | N
* Cc1ccc(-n2ncc3c2CCCC3NC(=O)c2cnccn2)cc1C (stereo unspecified) | N
* CCOC(=O)[C@H]1[C@H]2COc3ccc(OC)cc3[C@@H]2N2C(=O)c3ccc(F)cc3NC(=O)[C@@]12C | N
* CC(=O)NCC(=O)NC1CCCc2c1cnn2-c1ccccc1F (stereo unspecified) | N
* COC(=O)C1CCN(C(=O)COC(=O)c2cc(S(=O)(=O)N3CCOCC3)ccc2C)CC1 | N
* Cc1ccc(C(=O)O)cc1S(=O)(=O)NCC1CCCO1 (stereo unspecified) | N
* O=C(COC(=O)CNC(=O)C1CCCCC1)NCc1ccccc1 | N
* CC(C(=O)Nc1ccc(F)c(F)c1F)N1CCCCCC1 (stereo unspecified) | N
* Cn1nccc1C(=O)NC1CCCc2c1cnn2-c1ccc(F)cc1F (stereo unspecified) | N
* Cn1nccc1C(=O)NC1CCCc2c1cnn2-c1ccccc1F (stereo unspecified) | N
* COc1ccc(C(=O)NC2CCCc3c2cnn3-c2cccc(C)c2C)c(OC)n1 (stereo unspecified) | Y
